meta.source: patent US8691753B2

Target: UniProtKB P14780
Test: Inhibition constant (Ki) on MMP-9h
Type: biochemical
Settings: read-out: Ki MMP-9h; human MMP-9
valueKind: Ki

Quick one: give measured Ki for `Cc1ccc(-c2ccc(CCC(=O)N[C@@H](CCC(=O)O)C(=O)N[C@@H](CCC(=O)O)C(N)=O)cc2)s1`
242 nM

Quick one: give measured Ki for `NC(=O)[C@H](Cc1ccc(O)cc1)NC(=O)[C@H](CCC(=O)O)NC(=O)CCc1ccc(-c2ccccc2)cc1`
> 1000 nM

Quick one: give measured Ki for `NC(=O)[C@H](CCC(=O)O)NC(=O)[C@H](CCC(=O)O)NC(=O)CCc1cc(-c2ccccc2)on1`
> 5000 nM

Quick one: give measured Ki for `NC(=O)[C@H](CCC(=O)O)NC(=O)[C@H](CCC(=O)O)NC(=O)CCc1ccc(-c2ccc(-c3nc4ccccc4s3)s2)cc1`
> 1000 nM

Quick one: give measured Ki for `NC(=O)[C@@H](CCC(=O)O)NC(=O)[C@H](CCC(=O)O)NC(=O)CCc1cc(-c2ccc(-c3cccc(Cl)c3)cc2)no1`
> 1000 nM

Quick one: give measured Ki for `NC(=O)[C@H](CCC(=O)O)NC(=O)[C@H](CCC(=O)O)NC(=O)CCc1ccc(COc2ccccc2)cc1`
> 1000 nM

Quick one: give measured Ki for `CC(C)C[C@H](NC(=O)[C@H](CCC(=O)O)NC(=O)CCc1ccc(-c2ccccc2)cc1)C(N)=O`
> 5000 nM

---

Molecular target: MMP-12h (Homo sapiens (Human))
Sequence (P39900 106-470): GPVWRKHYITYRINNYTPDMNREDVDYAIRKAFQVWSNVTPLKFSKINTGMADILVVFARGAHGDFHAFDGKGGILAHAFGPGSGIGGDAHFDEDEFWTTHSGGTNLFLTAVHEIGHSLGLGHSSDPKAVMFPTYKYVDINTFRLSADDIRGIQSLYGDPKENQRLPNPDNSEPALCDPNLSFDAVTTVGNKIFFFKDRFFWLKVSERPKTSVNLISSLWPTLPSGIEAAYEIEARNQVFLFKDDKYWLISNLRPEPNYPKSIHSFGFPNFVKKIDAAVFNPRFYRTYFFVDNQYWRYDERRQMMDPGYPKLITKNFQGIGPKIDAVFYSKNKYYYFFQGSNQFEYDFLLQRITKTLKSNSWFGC
Test: Inhibition constant (Ki) on MMP-12h
Type: biochemical
Conditions: read-out: Ki MMP-12h; human MMP-12
pKi: −log10 of the molar value.
Class Met: pKi at least 8. Class Not met: pKi below 8.

pKi >= 8 for `C[C@H](NC(=O)[C@H](CCC(=O)O)NC(=O)CCc1ccc(-c2ccc(-c3ccccc3)cc2)cc1)C(N)=O` ?
Met

pKi >= 8 for `NC(=O)[C@H](CCC(=O)O)NC(=O)[C@H](Cc1c[nH]cn1)NC(=O)CCc1ccc(-c2ccc(-c3ccccc3)cc2)cc1` ?
Not met

pKi >= 8 for `C[C@H](NC(=O)[C@H](CCC(=O)O)NC(=O)CCc1ccc(-c2cccs2)cc1)C(N)=O` ?
Not met

pKi >= 8 for `NC(=O)CC[C@H](NC(=O)[C@H](CCC(=O)O)NC(=O)CCc1ccc(-c2cc(-c3ccccc3)cs2)cc1)C(N)=O` ?
Met

pKi >= 8 for `NC(=O)[C@H](CCCC(=O)O)NC(=O)[C@H](CCC(=O)O)NC(=O)CCc1ccc(-c2cc(-c3ccccc3)cs2)cc1` ?
Met

pKi >= 8 for `NC(=O)CC[C@H](NC(=O)[C@H](CCC(N)=O)NC(=O)CCc1ccc(-c2ccccc2)cc1)C(N)=O` ?
Not met

---

Molecular target: MMP-13h (Homo sapiens (Human), UniProt P45452)
Assay: Inhibition constant (Ki) on MMP-13h
Assay type: biochemical
Settings: read-out: Ki MMP-13h; human MMP-13
Answer each item with its documented Ki.

Quick one: give measured Ki for `O=C(O)CC[C@H](NC(=O)CCc1ccc(-c2cccs2)cc1)C(=O)N1CCC[C@@H](CC(=O)O)C1`
> 1000 nM

Quick one: give measured Ki for `NC(=O)[C@H](CCC(=O)O)NC(=O)[C@H](Cc1cnc[nH]1)NC(=O)CCc1ccc(-c2cc(-c3ccccc3)cs2)cc1`
> 1000 nM

Quick one: give measured Ki for `NC(=O)[C@H](CCC(=O)O)NC(=O)[C@H](CCC(=O)O)NC(=O)CCc1cn(-c2ccccc2)nn1`
> 5000 nM

Quick one: give measured Ki for `O=C(O)CC[C@H](NC(=O)CCc1ccc(-c2cc(-c3ccccc3)cs2)cc1)C(=O)Nc1cccc(CC(=O)O)c1`
132 nM

---

Answer each item with its documented Ki.
Molecular target: MMP-3h (Homo sapiens (Human))
Sequence (P08254 100-477): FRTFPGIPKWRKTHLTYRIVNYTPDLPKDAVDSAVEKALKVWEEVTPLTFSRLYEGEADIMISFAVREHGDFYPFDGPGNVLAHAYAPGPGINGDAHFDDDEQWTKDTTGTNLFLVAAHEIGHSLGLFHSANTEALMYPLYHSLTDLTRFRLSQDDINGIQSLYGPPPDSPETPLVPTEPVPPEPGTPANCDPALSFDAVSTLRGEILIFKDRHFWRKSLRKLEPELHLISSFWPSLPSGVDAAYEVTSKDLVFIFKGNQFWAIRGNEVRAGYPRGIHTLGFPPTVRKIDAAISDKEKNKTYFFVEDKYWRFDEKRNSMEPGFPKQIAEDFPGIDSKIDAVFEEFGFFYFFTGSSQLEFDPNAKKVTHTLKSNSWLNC
Assay: Inhibition constant (Ki) on MMP-3h
Type: biochemical
Settings: human MMP-3

Quick one: give measured Ki for `NC(=O)[C@H](CC(=O)O)NC(=O)[C@H](CCC(=O)O)NC(=O)CCc1cc(-c2ccc(-c3ccccc3)cc2)no1`
0.44 µM

Quick one: give measured Ki for `NC(=O)[C@H](CCC(=O)O)NC(=O)[C@H](CCC(=O)O)NC(=O)CCc1ccc(-c2csnn2)cc1`
0.281 µM

Quick one: give measured Ki for `NC(=O)[C@H](CCC(=O)O)NC(=O)[C@H](CCC(=O)O)NC(=O)CCc1ccc(-c2ccccc2)cc1`
> 5 µM

Quick one: give measured Ki for `NC(=O)CC[C@H](NC(=O)[C@H](CCC(=O)O)NC(=O)CCc1ccc(-c2ccccc2)cc1)C(N)=O`
> 5 µM

Quick one: give measured Ki for `NC(=O)[C@H](CCC(=O)O)NC(=O)[C@H](CCC(=O)O)NC(=O)CCc1ccc(-n2cccc2)cc1`
> 1 µM

Quick one: give measured Ki for `NC(=O)[C@H](CCC(=O)O)NC(=O)[C@H](CCC(=O)O)NC(=O)CCc1ccc(-c2nc3ccccc3s2)cc1`
0.088 µM

Quick one: give measured Ki for `NC(=O)[C@H](CCC(=O)O)NC(=O)[C@H](CCCC(=O)O)NC(=O)CCc1cc(-c2ccc(-c3cccc(Cl)c3)cc2)no1`
0.302 µM

---

Target: MMP-8h (Homo sapiens (Human), UniProt P22894)
Sequence (P22894 101-467): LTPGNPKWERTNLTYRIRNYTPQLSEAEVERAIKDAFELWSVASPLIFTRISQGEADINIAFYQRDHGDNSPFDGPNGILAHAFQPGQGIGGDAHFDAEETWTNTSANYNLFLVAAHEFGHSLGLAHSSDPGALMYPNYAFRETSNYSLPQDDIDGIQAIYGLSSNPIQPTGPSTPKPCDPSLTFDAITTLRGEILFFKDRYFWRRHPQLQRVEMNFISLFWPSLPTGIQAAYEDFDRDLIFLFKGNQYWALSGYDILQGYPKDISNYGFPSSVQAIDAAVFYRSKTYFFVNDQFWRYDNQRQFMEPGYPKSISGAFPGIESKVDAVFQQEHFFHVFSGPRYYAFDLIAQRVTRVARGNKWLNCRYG
Assay: Inhibition constant (Ki) on MMP-8h
Format: biochemical
Conditions: read-out: Ki MMP-8h; human MMP-8
valueKind: pKi
Note: pKi values are expressed as the negative base-10 logarithm of concentration in M.

Quick one: give measured pKi for `NCCCC[C@H](NC(=O)[C@H](CCC(=O)O)NC(=O)CCc1ccc(-c2cccs2)cc1)C(N)=O`
7.14

Quick one: give measured pKi for `NC(=O)[C@H](CC(=O)O)NC(=O)[C@H](CCC(=O)O)NC(=O)CCc1ccc(-c2cccs2)cc1`
7.31

Quick one: give measured pKi for `NC(=O)[C@H](CC(=O)O)NC(=O)[C@H](CC(=O)O)NC(=O)CCc1cc(-c2ccc(-c3cccc(Cl)c3)cc2)no1`
6.19

Quick one: give measured pKi for `NC(=O)[C@H](CC(=O)O)NC(=O)[C@H](CCC(=O)O)NC(=O)CCc1ccc(-c2ccc(-c3ccccc3)cc2)cc1`
6.54

Quick one: give measured pKi for `NC(=O)[C@H](Cc1ccc(O)cc1)NC(=O)[C@H](CCC(=O)O)NC(=O)CCc1ccc(-c2cccs2)cc1`
7.39

Quick one: give measured pKi for `NC(=O)[C@H](CCC(=O)O)NC(=O)CCc1cc(-c2ccccc2)no1`
6.94

Quick one: give measured pKi for `NC(=O)[C@H](CO)NC(=O)[C@H](CCC(=O)O)NC(=O)CCc1ccc(-c2ccccc2)cc1`
6.69

Quick one: give measured pKi for `CC(C)C[C@H](NC(=O)[C@H](CCC(=O)O)NC(=O)CCc1ccc(-c2ccccc2)cc1)C(N)=O`
6.44

Quick one: give measured pKi for `NC(=O)[C@H](Cc1c[nH]cn1)NC(=O)[C@H](CCC(=O)O)NC(=O)CCc1ccc(-c2ccccc2)cc1`
6.47

---

Target: MMP-9h (Homo sapiens (Human), UniProt P14780)
Sequence (P14780 94-707): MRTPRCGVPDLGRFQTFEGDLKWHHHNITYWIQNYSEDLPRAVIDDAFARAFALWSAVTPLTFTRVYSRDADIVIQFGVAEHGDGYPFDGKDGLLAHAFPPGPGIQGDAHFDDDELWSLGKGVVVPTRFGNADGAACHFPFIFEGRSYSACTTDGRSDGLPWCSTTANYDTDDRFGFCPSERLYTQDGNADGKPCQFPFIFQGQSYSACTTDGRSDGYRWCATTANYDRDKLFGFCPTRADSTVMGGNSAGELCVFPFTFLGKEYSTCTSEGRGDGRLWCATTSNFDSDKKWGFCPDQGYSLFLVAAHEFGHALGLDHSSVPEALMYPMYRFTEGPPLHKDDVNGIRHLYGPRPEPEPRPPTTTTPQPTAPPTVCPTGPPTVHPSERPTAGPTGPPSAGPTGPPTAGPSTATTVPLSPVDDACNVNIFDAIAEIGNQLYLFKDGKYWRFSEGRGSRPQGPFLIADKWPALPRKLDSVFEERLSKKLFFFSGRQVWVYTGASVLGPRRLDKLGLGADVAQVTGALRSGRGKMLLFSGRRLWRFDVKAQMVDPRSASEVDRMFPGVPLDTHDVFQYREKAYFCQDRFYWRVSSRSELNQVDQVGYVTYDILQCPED
Assay: Inhibition constant (Ki) on MMP-9h
Format: biochemical
Conditions: human MMP-9
Answer each item with its documented Ki.
Write the answer as a number in nM, unit excluded.

Quick one: give measured Ki for `NC(=O)[C@H](CCC(=O)O)NC(=O)[C@H](CCC(=O)O)NC(=O)CCc1ccc(-c2cccc([N+](=O)[O-])c2)cc1`
685

Quick one: give measured Ki for `NC(=O)[C@H](CCCC(=O)O)NC(=O)[C@H](CCCC(=O)O)NC(=O)CCc1cc(-c2ccc(-c3cccc(Cl)c3)cc2)no1`
605

---

Answer each item with its documented Ki.
Molecular target: MMP-10h (Homo sapiens (Human), UniProt P09238)
Sequence (P09238 99-476): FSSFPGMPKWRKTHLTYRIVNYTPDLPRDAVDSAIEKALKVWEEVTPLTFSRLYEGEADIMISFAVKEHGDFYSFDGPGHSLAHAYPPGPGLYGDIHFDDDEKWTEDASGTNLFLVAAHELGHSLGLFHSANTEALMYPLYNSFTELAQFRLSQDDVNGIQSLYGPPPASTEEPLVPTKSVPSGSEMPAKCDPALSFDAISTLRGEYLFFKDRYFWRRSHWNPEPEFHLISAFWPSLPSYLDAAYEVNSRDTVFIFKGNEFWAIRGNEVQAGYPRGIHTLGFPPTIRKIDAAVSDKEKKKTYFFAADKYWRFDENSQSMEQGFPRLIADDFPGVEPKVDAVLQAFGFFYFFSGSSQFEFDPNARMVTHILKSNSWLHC
Assay: Inhibition constant (Ki) on MMP-10h
Format: biochemical
Details: read-out: Ki MMP-10h; human MMP-10
Write the answer as a number in nM, unit excluded.

Quick one: give measured Ki for `NC(=O)[C@H](CCCC(=O)O)NC(=O)[C@H](CCC(=O)O)NC(=O)CCc1cc(-c2ccc(-c3cccc(Cl)c3)cc2)no1`
51

Quick one: give measured Ki for `NC(=O)CC[C@H](NC(=O)[C@H](CCC(=O)O)NC(=O)CCc1cc(-c2ccc(-c3ccccc3)cc2)no1)C(N)=O`
256

---

Target: UniProtKB P39900
Experiment: Inhibition constant (Ki) on MMP-12h
Type: biochemical
Details: read-out: Ki MMP-12h; human MMP-12
valueKind: Ki

Quick one: give measured Ki for `Cc1nc(-c2ccc(CCC(=O)N[C@@H](CCC(=O)O)C(=O)N[C@@H](CCC(=O)O)C(N)=O)cc2)no1`
887 nM

Quick one: give measured Ki for `NC(=O)[C@H](CCC(=O)O)NC(=O)[C@H](CCC(=O)O)NC(=O)[C@@H](CC(=O)O)Cc1ccc(-c2cc(-c3ccccc3)cs2)cc1`
0.3 nM

Quick one: give measured Ki for `CC(C)C[C@H](NC(=O)[C@H](CCC(=O)O)NC(=O)CCc1ccc(-c2ccccc2)cc1)C(N)=O`
76 nM

Quick one: give measured Ki for `NC(=O)[C@H](CCC(=O)O)NC(=O)[C@H](Cc1ccc(O)cc1)NC(=O)CCc1ccc(-c2ccc(-c3ccccc3)cc2)cc1`
122 nM

Quick one: give measured Ki for `O=C(O)CC[C@H](NC(=O)CCc1ccc(-c2ccccc2)cc1)C(=O)Nc1cccc(CC(=O)O)c1`
12.7 nM

Quick one: give measured Ki for `NC(=O)[C@H](CCC(=O)O)NC(=O)CCc1cc(-c2ccccc2)no1`
398 nM

Quick one: give measured Ki for `NCCCC[C@H](NC(=O)[C@H](CCC(=O)O)NC(=O)CCc1ccc(-c2cccs2)cc1)C(N)=O`
44 nM

Quick one: give measured Ki for `Cn1ccc(-c2ccc(CCC(=O)N[C@@H](CCC(=O)O)C(=O)N[C@@H](CCC(=O)O)C(N)=O)cc2)n1`
797 nM

Quick one: give measured Ki for `Cc1ccc(-c2ccc(CCC(=O)N[C@@H](CCC(=O)O)C(=O)N[C@@H](CCC(=O)O)C(N)=O)cc2)s1`
1.84 nM

Quick one: give measured Ki for `O=C(O)CC[C@H](NC(=O)CCc1ccc(-c2cccs2)cc1)C(=O)N1CCC[C@@H](CC(=O)O)C1`
124 nM

Quick one: give measured Ki for `NC(=O)[C@H](CCC(=O)O)NC(=O)[C@H](CCC(=O)O)NC(=O)CCc1ccc(-c2cccc(Cl)c2)cc1`
57 nM

Quick one: give measured Ki for `NC(=O)[C@H](Cc1c[nH]cn1)NC(=O)[C@H](CCC(=O)O)NC(=O)CCc1ccc(-c2ccccc2)cc1`
75 nM

Quick one: give measured Ki for `NCCCC[C@H](NC(=O)CCc1ccc(-c2ccc(-c3ccccc3)cc2)cc1)C(=O)N[C@@H](CCC(=O)O)C(N)=O`
254 nM

Quick one: give measured Ki for `NC(=O)[C@H](CCC(=O)O)NC(=O)[C@H](CCC(=O)O)NC(=O)CCc1ccc(I)cc1`
155 nM
